Values were extracted from PubChem BioAssay AID1117361.

Give pIC50 for every item shown.
# TESTED SYSTEM: Protein Tat (Human immunodeficiency virus type 1 group M subtype B (isolate HXB2)) (UniProt P04608)
# Sequence (P04608 whole entry, looked up): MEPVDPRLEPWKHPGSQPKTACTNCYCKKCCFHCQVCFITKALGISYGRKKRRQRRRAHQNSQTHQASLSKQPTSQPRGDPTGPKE
# METHOD NOTES: inhibitors of Tat binding to TAR RNA, dose response, counter-screen for Vif-APOBEC3G degradation inhibitor project, biochemical, fluorescence polarization, FAM-labeled TAR RNA (AID 1117361)
Answers are plain numbers, as −log10 of the molar value.

CC(N=Cc1cccc(O)c1O)c1ccccc1 (centres undefined) :: 5.16
CCOC(=O)C1=C(C)N=C2SC(C(=O)OC)=CC(=O)N2C1c1cc(OC)c(OC)c(OC)c1 (centres undefined) :: 4.50
CC(=O)C1=C(C)NC(C)=C(C(C)=O)C1c1cccs1 :: 4.04
COC(=O)CCC(=O)OC1(C)C(=O)C2=COC(c3ccc(OC)cc3)=CC2=C(Br)C1=O (centres undefined) :: 4.89
O=C1NC(=S)NC1=Cc1ccco1 :: 4.45

Each compound below has a recorded value; state its pIC50.
1. O=C1C=Cc2ccccc2C1=O
2. O=C1CC(c2ccco2)CC(O)=C1C=Nc1cc(Cl)ccc1Cl (centres undefined)
3. Cc1c(N=C2C=C(Br)C(=O)C(Br)=C2)c(=O)n(-c2ccccc2)n1C
4. COC(=O)C1=COC(C)C2CN3CCc4c([nH]c5ccccc45)C3CC12 (centres undefined)
5. O=C(Nc1ccccc1N1CCCC1)c1ccc(Br)o1
6. O=c1oc(/C=C/c2ccco2)nc2sc3c(c12)CCC3

Result:
[4.52, 5.14, 4.96, 5.12, 4.22, 4.92]
